- Tested on: Neutrophil
- procedure-details: Inhibition of FMLP/CB-stimulated superoxide production in human neutrophils preincubated for 5 mins before FMLP/CB treatment by spectrophotometry
- Type: functional, cell-based
experimental-endpoint: IC50

Below, 6 compounds whose answers are already recorded.
INSERT INTO results (compound, reported_measurement) VALUES
  ('CO[C@]1(CC[C@@H](C)CO[C@@H]2O[C@H](CO)[C@@H](O)[C@H](O)[C@H]2O)O[C@H]2C[C@H]3[C@@H]4C[C@H](O[C@@H]5O[C@H](C)[C@@H](O)[C@H](O[C@@H]6OC[C@@H](O)[C@H](O)[C@H]6O)[C@H]5O)[C@H]5C[C@@H](O)CC[C@]5(C)[C@H]4CC[C@]3(C)[C@H]2[C@@H]1C', '> 10 µM'),
  ('C[C@@H]1CC[C@@]2(OC1)O[C@H]1C[C@H]3[C@@H]4C[C@H](O[C@@H]5O[C@H](CO)[C@@H](O)[C@H](O)[C@H]5O)[C@H]5C[C@@H](O)CC[C@]5(C)[C@H]4CC[C@]3(C)[C@H]1[C@@H]2C', '> 10 µM'),
  ('c1ccc2c(c1)[I+]c1ccccc1-2', '0.8 µM'),
  ('C[C@@H]1CC[C@@]2(OC1)O[C@H]1C[C@H]3[C@@H]4C[C@H](O[C@@H]5OC[C@@H](O)[C@H](O[C@@H]6OC[C@@H](O)[C@H](O)[C@H]6O)[C@H]5O)[C@H]5C[C@@H](O)CC[C@]5(C)[C@H]4CC[C@]3(C)[C@H]1[C@@H]2C', '> 10 µM'),
  ('C[C@H](CC[C@@]1(O)O[C@H]2C[C@H]3[C@@H]4C[C@H](O[C@@H]5O[C@H](C)[C@@H](O)[C@H](O[C@@H]6OC[C@@H](O)[C@H](O)[C@H]6O)[C@H]5O)[C@H]5C[C@@H](O)CC[C@]5(C)[C@H]4CC[C@]3(C)[C@H]2[C@@H]1C)CO[C@@H]1O[C@H](CO)[C@@H](O)[C@H](O)[C@H]1O', '> 10 µM'),
  ('CC1=C(C(O)C[C@@H](C)CO[C@@H]2O[C@H](CO)[C@@H](O)[C@H](O)[C@H]2O)O[C@H]2C[C@H]3[C@@H]4C[C@H](O[C@@H]5O[C@H](C)[C@@H](O)[C@H](O[C@@H]6OC[C@@H](O)[C@H](O)[C@H]6O)[C@H]5O)[C@H]5C[C@@H](O)CC[C@]5(C)[C@H]4CC[C@]3(C)[C@@H]12 (stereo partly drawn)', '> 10 µM');

Query :: IC50 lookup needed for `C[C@@H]1CC[C@@]2(OC1)O[C@H]1C[C@H]3[C@@H]4C[C@H](O[C@@H]5O[C@H](C)[C@@H](O)[C@H](O)[C@H]5O)[C@H]5C[C@@H](O[C@@H]6O[C@H](CO)[C@@H](O)[C@H](O)[C@H]6O)CC[C@]5(C)[C@H]4CC[C@]3(C)[C@H]1[C@@H]2C` , thanks.
Result :: > 10 µM

Query :: Can you check `C[C@@H]1CC[C@@]2(OC1)O[C@H]1C[C@H]3[C@@H]4C[C@H](O[C@@H]5O[C@H](C)[C@@H](O)[C@H](O)[C@H]5O)[C@H]5C[C@@H](O)CC[C@]5(C)[C@H]4CC[C@]3(C)[C@H]1[C@@H]2C` next?
Result :: 7 µM

Query :: Can you check `C[C@H](CC[C@@]1(O)O[C@H]2C[C@H]3[C@@H]4C[C@H](O[C@@H]5O[C@H](C)[C@@H](O)[C@H](O)[C@H]5O)[C@H]5C[C@@H](O[C@@H]6O[C@H](CO)[C@@H](O)[C@H](O)[C@H]6O)CC[C@]5(C)[C@H]4CC[C@]3(C)[C@H]2[C@@H]1C)CO[C@@H]1O[C@H](CO)[C@@H](O)[C@H](O)[C@H]1O` next?
Result :: > 10 µM

###

- Tested on: Neutrophil
- procedure-details: Inhibition of FMLP/CB-stimulated elastase release in human neutrophils preincubated for 5 mins before FMLP/CB treatment using MeO-Suc-Ala-Ala-Pro-Val-pnitroanilide by spectrophotometry
- Format: functional, cell-based
pIC50: −log10 of the molar value.
experimental-endpoint: pIC50

INSERT INTO measurements (compound_structure, reported_measurement) VALUES
  ('C[C@@H]1CC[C@@]2(OC1)O[C@H]1C[C@H]3[C@@H]4C[C@H](O[C@@H]5O[C@H](C)[C@@H](O)[C@H](O[C@@H]6OC[C@@H](O)[C@H](O)[C@H]6O)[C@H]5O)[C@H]5CC(=O)CC[C@]5(C)[C@H]4CC[C@]3(C)[C@H]1[C@@H]2C', 5.49);

I = C[C@@H]1CC[C@@]2(OC1)O[C@H]1C[C@H]3[C@@H]4C[C@H](O[C@@H]5OC[C@@H](O)[C@H](O)[C@H]5O)[C@H]5C[C@@H](O)CC[C@]5(C)[C@H]4CC[C@]3(C)[C@H]1[C@@H]2C
II = CC(C)(C)C(=O)Oc1ccc(S(=O)(=O)Nc2ccccc2C(=O)NCC(=O)O)cc1
III = C[C@@H]1CC[C@@]2(OC1)O[C@H]1C[C@H]3[C@@H]4C[C@H](O[C@@H]5O[C@H](C)[C@@H](O)[C@H](O[C@@H]6OC[C@@H](O)[C@H](O)[C@H]6O)[C@H]5O)[C@H]5C[C@@H](O)CC[C@]5(C)[C@H]4CC[C@]3(C)[C@H]1[C@@H]2C
Query :: Number of molecules to sort: 3. Sort criterion: pIC50, ascending. Answer by listing the labels in the order asked for.
Result :: II, I, III
(II: 4.30, I: 5.36, III: 6.00)

###

Measured IC50, listed per entry for reference.
- Tested on: Neutrophil
- procedure-details: Inhibition of FMLP/CB-stimulated superoxide production in human neutrophils preincubated for 5 mins before FMLP/CB treatment by spectrophotometry
- Type: functional, cell-based
Number only, in µM; omit the unit.

INSERT INTO assay_data (compound_structure, study_target, reported_measurement) VALUES
  ('C[C@@H]1CC[C@@]2(OC1)O[C@H]1C[C@H]3[C@@H]4C[C@H](O)[C@H]5C[C@@H](O)CC[C@]5(C)[C@H]4CC[C@]3(C)[C@H]1[C@@H]2C', 'Neutrophil', 6.1);

Note: attention shifts to another entry.
Query :: IC50 lookup needed for `C[C@@H]1CC[C@@]2(OC1)O[C@H]1C[C@H]3[C@@H]4C[C@H](O[C@@H]5O[C@H](C)[C@@H](O)[C@H](O[C@@H]6OC[C@@H](O)[C@H](O)[C@H]6O)[C@H]5O)[C@H]5C[C@@H](O)CC[C@]5(C)[C@H]4CC[C@]3(C)[C@H]1[C@@H]2C` , thanks.
Result :: 4

###

Measured IC50, listed per entry for reference.
- Tested on: Neutrophil
- procedure-details: Inhibition of FMLP/CB-stimulated superoxide production in human neutrophils preincubated for 5 mins before FMLP/CB treatment by spectrophotometry
- Format: functional, cell-based

Query :: IC50 lookup needed for `C[C@@H]1CC[C@@]2(OC1)O[C@H]1C[C@H]3[C@@H]4C[C@H](O[C@@H]5OC[C@@H](O)[C@H](O)[C@H]5O)[C@H]5C[C@@H](O)CC[C@]5(C)[C@H]4CC[C@]3(C)[C@H]1[C@@H]2C` , thanks.
Result :: 7.6 µM

Query :: Can you check `C[C@H](CC[C@@]1(O)O[C@H]2C[C@H]3[C@@H]4C[C@H](O)[C@H]5C[C@@H](O[C@@H]6O[C@H](CO)[C@@H](O)[C@H](O)[C@H]6O[C@@H]6O[C@@H](C)[C@H](O)[C@@H](O)[C@H]6O)CC[C@]5(C)[C@H]4CC[C@]3(C)[C@H]2[C@@H]1C)CO[C@@H]1O[C@H](CO)[C@@H](O)[C@H](O)[C@H]1O` next?
Result :: > 10 µM

Query :: Can you check `C[C@@H]1CC[C@@]2(OC1)O[C@H]1C[C@H]3[C@@H]4C[C@H](O[C@@H]5O[C@H](C)[C@@H](O)[C@H](O[C@@H]6OC[C@@H](O)[C@H](O)[C@H]6O)[C@H]5O)[C@H]5CC(=O)CC[C@]5(C)[C@H]4CC[C@]3(C)[C@H]1[C@@H]2C` next?
Result :: > 10 µM

Query :: Can you check `C[C@H](CC[C@@]1(O)O[C@H]2C[C@H]3[C@@H]4C[C@H](O)[C@H]5C[C@@H](O[C@@H]6O[C@H](CO)[C@@H](O)[C@H](O)[C@H]6O)CC[C@]5(C)[C@H]4CC[C@]3(C)[C@H]2[C@@H]1C)CO[C@@H]1O[C@H](CO)[C@@H](O)[C@H](O)[C@H]1O` next?
Result :: > 10 µM

###

- System: Neutrophil
- procedure-details: Inhibition of FMLP/CB-stimulated superoxide production in human neutrophils preincubated for 5 mins before FMLP/CB treatment by spectrophotometry
- Format: functional, cell-based
pIC50: −log10 of the molar value.
experimental-endpoint: pIC50

Below, 2 molecules whose answers are already recorded.
INSERT INTO results (compound_structure, experimental_endpoint, reported_measurement) VALUES
  ('C[C@@H]1CC[C@@]2(OC1)O[C@H]1C[C@H]3[C@@H]4C[C@H](O)[C@H]5C[C@@H](O[C@@H]6O[C@H](CO)[C@@H](O[C@H]7O[C@@H](C)[C@H](O)[C@@H](O)[C@H]7O)[C@H](O)[C@H]6O[C@H]6O[C@@H](C)[C@H](O)[C@@H](O)[C@H]6O)CC[C@]5(C)[C@H]4CC[C@]3(C)[C@H]1[C@@H]2C', 'pIC50', '< 5.00'),
  ('CO[C@]1(CC[C@@H](C)CO[C@@H]2O[C@H](CO)[C@@H](O)[C@H](O)[C@H]2O)O[C@H]2C[C@H]3[C@@H]4C[C@H](O[C@@H]5O[C@H](C)[C@@H](O)[C@H](O[C@@H]6OC[C@@H](O)[C@H](O)[C@H]6O)[C@H]5O)[C@H]5CC(=O)CC[C@]5(C)[C@H]4CC[C@]3(C)[C@H]2[C@@H]1C', 'pIC50', '< 5.00');

Query :: Hello, I am looking for reported pIC50 with Neutrophil for `CC1=C(CC[C@@H](C)CO[C@@H]2O[C@H](CO)[C@@H](O)[C@H](O)[C@H]2O)O[C@H]2C[C@H]3[C@@H]4C[C@H](O[C@@H]5O[C@H](C)[C@@H](O)[C@H](O[C@@H]6OC[C@@H](O)[C@H](O)[C@H]6O)[C@H]5O)[C@H]5C[C@@H](O)CC[C@]5(C)[C@H]4CC[C@]3(C)[C@@H]12` . Could you help?
Result :: < 5.00

Data provenance is ChEMBL document CHEMBL3352510.
